subject-of-test: T1, human PD1 expressed on a cell surface (human, UniProt Q15116 25-288)
T1 construct: whole, on cells; also called hPD1
test-details: flow cytometry on OKT3-activated human T cells, CD4- cells
reported-endpoint: pEC50
On this scale, pEC50 is minus log10 of a concentration expressed in M (mol/L).

Past entries and their recorded results:
// query Given the binder anti-hPD1 antibody #3 (antibody, human IgG4, V domains shown, also called Anti-hPD1 #3; Anti-PD1 #3) VH: QVQLVQSGAEVKKPGASVKVSCKASSYTFTNYWMHWVRQAPGQGLEWMGEIDPYDSYTNYNQKFKGRVTMTIDTSTSTVYMELSSLTSEDTAVYYCARPGFTYGGMDFWGQGTLVTVSS VL: DIQMTQSPSSLSASVGDRVTITCKSSQSLFNSGNQKNYLAWYQQKPGKVPKLLIYGASTRESGVPARFSGSGSGTDFTLTISSLQAEDVATYYCQNDHYYPYTFGGGTKVEIK , write its reported pEC50.
// result 9.16

// query Answer with the recorded pEC50 of anti-hPD1 antibody #4 (antibody, human IgG4, V domains shown, also called Anti-hPD1 #4; Anti-PD1 #4) VH: QVQLVQSGAEVKKPGASVKVSCKASGYTFTNYWMHWVRQAPGQGLEWMGEIDPFDSYTNYNQKFKGRVTMTRDTSTSTVYMELSSLTSEDTAVYYCARPGYTYGGMDFWGQGTLVTVSS VL: DIQMTQSPSSLSASVGDRVTITCKSSQSLLNSGNQKNYLAWYQQKPGKPPKLLIYGASTRDSGVPSRFSGSGSGTDFTLTISSLQPEDVATYYCQNDHYYPYTFGGGTKVEIK only.
// result 9.05

Shift focus to the following entry.
// query Return reported pEC50. Input binder: anti-hPD1 antibody #15 (antibody, human IgG4, V domains shown, also called Anti-hPD1 #15) VH: QVQLVQSGAEVKKPGASVKVSCKASGYTFTNYWMHWVRQAPGQGLEWMGEIDPYDSYTNYNQKFKGRVTMTRDTSTNTVYMELSSLRSEDTAVYYCARPGLTYGGMDFWGQGTLVTVSS VL: DIQMTQSPSSLSASVGDRVTITCRSSQSLFNSGNQKNYLAWYQQKPGKPPKLLIYGASTRESGVPYRFSGSGSGTDFTLTISSLQPEDVATYYCQNDHYYPYTFGGGTKVEIK
// result 9.20
